- System: SK-OV-3
- Assay Details: NCI tumour cell line growth inhibition, 48 h
Active and inactive are the calls of the source. Rule as the data show it: active = GI50 up to about 1.1 µM and inactive = higher.
Measurement Name: GI50

Entry Cc1c2c(n(CCc3ccc(Cl)cc3)c1C)NC(c1ccccc1)C(C#N)S2(=O)=O (stereo not given) , GI50 reported as > 90.6 µM (inactive)

Record summary for CCCCCCCCCCCCOP(=O)(O)OP(=O)(O)OCC1OC(n2cc(C)c(=O)[nH]c2=O)CC1O (stereo not given) : reported GI50 = > 100 µM (inactive)

Entry under test: C[S+](C)CC1OC(n2cnc3c(N)ncnc32)C(O)C1O (stereo not given) . Its GI50 was > 225 µM (inactive)

Short answer for COc1cc(C2C(C(=O)O)=C(C)Oc3cc4c(cc32)OCO4)cc(OC)c1OC (stereo not given) : GI50 was 39.9 µM (inactive)

Lab note: measured GI50 of N#CC12COC3(CCCCC3C1(C#N)C#N)OC2=N (stereo not given) was 45.7 µM (inactive)
